system: SF-295 CNS; assay: NCI tumour cell line growth inhibition, 48 h; in the data active = GI50 below about 0.43 µM; inactive = the rest
Parameter call: string, one of active, inactive

Status in this test for O=C(NC1CCCCC1)NS(=O)(=O)c1ccc(N2N=C3c4ccccc4CC3C2c2ccc(Cl)cc2)cc1 (stereo unspecified) ?
inactive

Status in this test for CC(C)[C@@H]1NC(=O)[C@]2(C)CSC(=N2)c2ccnc(c2)CNC(=O)C[C@@H](/C=C/CCS)OC1=O ?
active

Status in this test for COC(=O)/C=C/c1cc(OC(C)=O)c2c(c1)[C@@H](C(=O)OC)[C@H](c1ccc(OC(C)=O)c(OC(C)=O)c1)O2 ?
active

Status in this test for O=c1cc(-c2ccc3c(c2)OCO3)[nH]c2cc3c(cc12)OCO3 ?
inactive

Status in this test for Cc1nnc2ccnn2c1C ?
inactive

Status in this test for Cc1ccc(NC2=C3CCCCC3OC2=O)cc1 (stereo unspecified) ?
inactive
